Listed here are molecules together with their documented Inhibition of the proliferation of K-562 cells, inhibition (c %).
System: human K-562 erythroleukaemical cell-line
Test: Inhibition of the proliferation of tumor cells (K-562)
Type: cell-based
Settings: peptide 1/ug/ml; 72nd hour after treatment; percentage of the control
Square brackets hold non-standard residues; d marks the D form. Peptide text beside a SMILES is read from it. pGlu = O=C1CC[C@@H](C(=O)O)N1
Just the number in %, nothing appended.

Recorded Inhibition of the proliferation of K-562 cells, inhibition (c %) for N=C(N)NCCC[C@H](N)C(=O)N[C@@H](CCCCN)C(=O)N[C@@H](CCC(=O)O)C(=O)O [Peptide 5, Arg-Lys-GIu-OH] (H-Arg-Lys-Glu-OH) , please? 40

Need Inhibition of the proliferation of K-562 cells, inhibition (c %) of NCCCC[C@H](NC(=O)[C@H](CCC(=O)O)NC(=O)[C@@H]1CCC(=O)N1)C(N)=O [Peptide 2, Glp-Glu-Lys-NH2] ([pGlu]-Glu-Lys-NH2) , thanks. 40

Name the reported Inhibition of the proliferation of K-562 cells, inhibition (c %) value associated with the molecule N=C(N)NCCC[C@H](N)C(=O)N[C@@H](CCCCN)C(=O)N[C@@H](CC(=O)O)C(N)=O [Peptide 4, Arg-Lys-Asp-NH2] (H-Arg-Lys-Asp-NH2) 25
